# System: LPS-induced TNF-α release in peripheral blood mononuclear cells (PBMCs)
# TEST_DETAILS: In vitro determination of PDE4 inhibitory activity in the PBMCs assay (LPS-induced TNF-α release)
# Assay type: cell-based, human
# EXPERIMENTAL_PARAMETERS: PBMC; human PBMCs, LPS 3 ng/ml, 18 hours, TNF-α by ELISA; read-out: PDE4 inhibition (IC50, 50% inhibition of LPS-induced TNF-α release)
pIC50: −log10 of the molar value. Structures can show the parent of a compound that is named as a salt.
Would you mind telling me the reported pIC50 of each entry?

Please review the entries below; each comes with its answer.
CN(C)C(=O)c1cccc(CC(=O)N2CCS[C@H]2C(=O)O[C@@H](Cc2c(Cl)c[n+]([O-])cc2Cl)c2ccc(OC(F)F)c(OCC3CC3)c2)c1; 9.00 to 10.00
CN(C)C(=O)c1cccc(S(=O)(=O)N2CCSCC2C(=O)O[C@@H](Cc2c(Cl)c[n+]([O-])cc2Cl)c2ccc(OC(F)F)c(OCC3CC3)c2)c1 (some centres unmarked); 9.00 to 10.00
CS(=O)(=O)N(CCN1CCOCC1)c1cc(OCC2CC2)cc(C(=O)N2CCSC2C(=O)O[C@@H](Cc2c(Cl)c[n+]([O-])cc2Cl)c2ccc(OC(F)F)c(OCC3CC3)c2)c1 (some centres unmarked) [Compound 49, formate]; 9.00 to 10.00
CN(C)C(=O)c1cccc(S(=O)(=O)N2CC(C(=O)O[C@@H](Cc3c(Cl)c[n+]([O-])cc3Cl)c3ccc(OC(F)F)c(OCC4CC4)c3)C2)c1; 9.00 to 10.00
CN(C)C(=O)c1cccc(S(=O)(=O)N2CCN(CC(=O)O[C@@H](Cc3c(Cl)c[n+]([O-])cc3Cl)c3ccc(OC(F)F)c(OCC4CC4)c3)CC2)c1; 9.00 to 10.00

Look up pIC50 for the entries below, preserving their order.
1. O=C(O[C@@H](Cc1c(Cl)c[n+]([O-])cc1Cl)c1ccc(OC(F)F)c(OCC2CC2)c1)[C@@H]1CCCCN1S(=O)(=O)c1ccc(N2CCOCC2)nc1
2. CC(=O)c1cccc(S(=O)(=O)N2CCS[C@H]2C(=O)O[C@@H](Cc2c(Cl)c[n+]([O-])cc2Cl)c2ccc(OC(F)F)c(OCC3CC3)c2)c1
3. CS(=O)(=O)N(CCN1CCOCC1)c1ccc(S(=O)(=O)N2CCSC2C(=O)O[C@@H](Cc2c(Cl)c[n+]([O-])cc2Cl)c2ccc(OC(F)F)c(OCC3CC3)c2)cc1 (some centres unmarked) [Compound 143, formate]
4. Nc1ccc(S(=O)(=O)N2CCN(CC(=O)O[C@@H](Cc3c(Cl)c[n+]([O-])cc3Cl)c3ccc(OC(F)F)c(OCC4CC4)c3)CC2)cc1
5. COc1cc([C@H](Cc2c(Cl)c[n+]([O-])cc2Cl)OC(=O)[C@@H]2SCCN2S(=O)(=O)c2cccc(C(=O)N(C)C)c2)ccc1OC(F)F
6. O=C(O[C@@H](Cc1c(Cl)c[n+]([O-])cc1Cl)c1ccc(OC(F)F)c(OCC2CC2)c1)[C@@H]1SCCN1S(=O)(=O)c1ccco1

a:
["9.00 to 10.00", "9.00 to 10.00", "9.00 to 10.00", "9.00 to 10.00", "> 10.00", "> 10.00"]
